Reported log10(IC50) by item:
Target Desc: His-tagged recombinant human Gal-3 (hGal-3) (Homo sapiens (Human), UniProt P17931)
Sequence (P17931 whole entry): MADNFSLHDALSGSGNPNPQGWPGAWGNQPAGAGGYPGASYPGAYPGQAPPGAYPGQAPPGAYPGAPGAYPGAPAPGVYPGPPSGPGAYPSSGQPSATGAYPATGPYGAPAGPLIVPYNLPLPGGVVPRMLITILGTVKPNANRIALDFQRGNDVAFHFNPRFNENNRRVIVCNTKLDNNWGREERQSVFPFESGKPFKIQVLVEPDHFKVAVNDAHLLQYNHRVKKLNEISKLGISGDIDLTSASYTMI
Experiment: Gal-3 HTRF assay (hGal-3 / B-ASF)
Type: binding
Particulars: 15 nM hGal-3, 15 nM B-ASF, three replicates, room temperature, read-out: hGal3 IC50
Endpoint: log10(IC50) (log10 of the value in nM)

compound=CCO[C@@H]1[C@@H](n2cc(-c3cc(F)c(F)c(F)c3)nn2)[C@@H](O)[C@@H](CO)O[C@@H]1Sc1ccc(Cl)c(Cl)c1 target_desc="His-tagged recombinant human Gal-3 (hGal-3) (Homo sapiens (Human), UniProt P17931)" measured_result=3.02
compound=N#CCO[C@@H]1[C@@H](n2cc(-c3cc(F)c(F)c(F)c3)nn2)[C@@H](O)[C@@H](CO)O[C@@H]1Sc1ccc(Cl)c(Cl)c1 target_desc="His-tagged recombinant human Gal-3 (hGal-3) (Homo sapiens (Human), UniProt P17931)" measured_result=2.36
compound=O=C(O)/C=C/O[C@@H]1[C@@H](n2cc(C3CC3)nn2)[C@@H](O)[C@@H](CO)O[C@@H]1Sc1ccc(Cl)c(Cl)c1 target_desc="His-tagged recombinant human Gal-3 (hGal-3) (Homo sapiens (Human), UniProt P17931)" measured_result=3.44
compound=COCCO[C@@H]1[C@@H](n2cc(-c3cc(F)c(F)c(F)c3)nn2)[C@@H](O)[C@@H](CO)O[C@@H]1[S@+]([O-])c1ccc(Cl)c(Cl)c1 target_desc="His-tagged recombinant human Gal-3 (hGal-3) (Homo sapiens (Human), UniProt P17931)" measured_result=1.75
compound=COCCO[C@@H]1[C@@H](n2cc(-c3cc(F)c(F)c(F)c3)nn2)[C@@H](O)[C@@H](CO)O[C@@H]1S(=O)(=O)c1ccc(Cl)c(Cl)c1 target_desc="His-tagged recombinant human Gal-3 (hGal-3) (Homo sapiens (Human), UniProt P17931)" measured_result=2.11
compound=O=C(CO[C@@H]1[C@@H](n2cc(-c3cc(F)c(F)c(F)c3)nn2)[C@@H](O)[C@@H](CO)O[C@@H]1[S@+]([O-])c1ccc(Cl)c(Cl)c1)N1CCS(=O)(=O)CC1 target_desc="His-tagged recombinant human Gal-3 (hGal-3) (Homo sapiens (Human), UniProt P17931)" measured_result=1.70
compound=CCOC(=O)CO[C@@H]1[C@@H](n2cc(-c3cc(F)c(F)c(F)c3)nn2)[C@@H](O)[C@@H](CO)O[C@@H]1Sc1ccc(Cl)c(Cl)c1 target_desc="His-tagged recombinant human Gal-3 (hGal-3) (Homo sapiens (Human), UniProt P17931)" measured_result=2.58
compound="O=C(O)/C=C/O[C@@H]1[C@@H](n2cc(-c3cc(F)c(F)c(F)c3)nn2)[C@@H](O)[C@@H](CO)O[C@@H]1Sc1ccc(Cl)c(Cl)c1 [Example 40 (trans-isomer)]" target_desc="His-tagged recombinant human Gal-3 (hGal-3) (Homo sapiens (Human), UniProt P17931)" measured_result=1.78
compound=CCO[C@@H]1[C@@H](n2cc(-c3cc(F)c(F)c(F)c3)nn2)[C@@H](O)[C@@H](CO)O[C@@H]1S(=O)(=O)c1ccc(Cl)c(Cl)c1 target_desc="His-tagged recombinant human Gal-3 (hGal-3) (Homo sapiens (Human), UniProt P17931)" measured_result=2.30
compound=O=C(O)CO[C@@H]1[C@@H](n2cnc(-c3cccc(F)c3)c2)[C@@H](O)[C@@H](CO)O[C@@H]1Sc1ccc(Cl)c(Cl)c1 target_desc="His-tagged recombinant human Gal-3 (hGal-3) (Homo sapiens (Human), UniProt P17931)" measured_result=3.19
compound="OC[C@H]1O[C@@H](Sc2ccc(Cl)c(Cl)c2)[C@H](F)[C@@H](n2cc(-c3cc(F)c(F)c(F)c3)nn2)[C@H]1O (single isomer, unassigned) [Example 62 (isomer-2)]" target_desc="His-tagged recombinant human Gal-3 (hGal-3) (Homo sapiens (Human), UniProt P17931)" measured_result=4.00

The measurements presented in this section are drawn from patent US11072626B2.
